Each record here notes measured Percent Effect.
target: Arginase-2, mitochondrial (Homo sapiens) (UniProt P78540); experiment: in vitro enzyme assay to detect the production of urea directly proportional to the activity of Arginase II; assay type: functional; design: scale not given: in the data most compounds retested in dose-response had high values; conditions: 33.3 µM
Sequence (P78540 whole entry): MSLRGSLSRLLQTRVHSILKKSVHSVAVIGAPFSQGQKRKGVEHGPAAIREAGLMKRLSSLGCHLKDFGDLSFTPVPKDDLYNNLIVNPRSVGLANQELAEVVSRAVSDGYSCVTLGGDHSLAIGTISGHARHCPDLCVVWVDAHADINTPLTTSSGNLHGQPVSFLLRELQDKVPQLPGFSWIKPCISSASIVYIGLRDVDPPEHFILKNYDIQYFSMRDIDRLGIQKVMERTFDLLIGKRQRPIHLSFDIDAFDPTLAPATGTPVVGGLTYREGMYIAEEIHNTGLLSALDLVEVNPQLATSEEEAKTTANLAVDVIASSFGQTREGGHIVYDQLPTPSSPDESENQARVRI
# unit: % | format: bare number

# return Percent Effect for `O=C(Nc1cccnc1)[C@H]1CO[C@H]2CCN(c3ncc(F)cn3)C[C@H]2C1` , test system: Arginase-2, mitochondrial (Homo sapiens) (UniProt P78540)
-55

Please tell me the measured Percent Effect for `N#Cc1ccccc1OCCN1CCC(N2CCNC2=O)CC1` ; system: Arginase-2, mitochondrial (Homo sapiens) (UniProt P78540).
-1.29

New cases:
Give the observed Percent Effect of CC(O)CC(C)(C)CNC(=O)NCc1cccc(-n2ccnc2)c1 (stereo unspecified) for Arginase-2, mitochondrial (Homo sapiens) (UniProt P78540).
-2.23

Find the measured Percent Effect of CCc1nc(C2CCCN2CCCS(=O)(=O)c2ccccc2)no1 (stereo unspecified) with Arginase-2, mitochondrial (Homo sapiens) (UniProt P78540) as test system.
0.41

# return Percent Effect of `Cc1c(F)cc(C(=O)O)cc1S(=O)(=O)Nc1cccc(C(F)F)c1` (system: Arginase-2, mitochondrial (Homo sapiens) (UniProt P78540))
0.41

Given CC1CN(CC2CCCCC2)CCN1c1ccc2nncn2n1 (stereo unspecified) , report its Percent Effect on Arginase-2, mitochondrial (Homo sapiens) (UniProt P78540).
-0.82

Report the value of Percent Effect obtained on Arginase-2, mitochondrial (Homo sapiens) (UniProt P78540) for `Cn1ccc2ccc(C(=O)N3CCN(C(=O)N4CCOCC4)CC3)cc21` .
3.85

Report value: Percent Effect, system: Arginase-2, mitochondrial (Homo sapiens) (UniProt P78540), molecule: CN(C)CC1CN(Cc2ccc3c(c2)OCO3)Cc2nccn2C1 (stereo unspecified)
-3.64

Enter Percent Effect (test system Arginase-2, mitochondrial (Homo sapiens) (UniProt P78540)) for CCOC1COC2(CCN(Cc3ccc4c(c3)OCO4)CC2)C1 (stereo unspecified)
3.65

Enter Percent Effect (test system Arginase-2, mitochondrial (Homo sapiens) (UniProt P78540)) for `Cc1ccc(N2CCN(C(=O)COc3ccccc3)CC2)nn1`
-0.909

Provide Percent Effect, recorded with Arginase-2, mitochondrial (Homo sapiens) (UniProt P78540), of `Cc1nn(C)cc1-c1cc(C(F)(F)F)c2c(C)nn(CC(=O)O)c2n1`
-0.885

###

Consider the following molecules and their measured Percent Effect readings.
molecular target: Chromo domain-containing protein 1 (Saccharomyces cerevisiae (strain ATCC 204508 / S288c) (Baker's yeast)); assay: ScCHD-1 Enzyme Inhibition Assay; format: functional; design: scale not given: in the data most compounds retested in dose-response had high values; settings: 30 µM
Supply the numeric figure in %, leaving out any unit text.

Worked cases, Percent Effect given:
Provide only the value of recorded Percent Effect for `N#Cc1ccccc1OCCN1CCC(N2CCNC2=O)CC1`
-0.203

Name the recorded Percent Effect of the molecule listed here: c1cnnc(NCC2CN(CCN3CCCCC3)CCO2)c1 (stereo not given)
-2.7

Assign Percent Effect to the following record: CC(=O)N(Cc1noc(C2CC2)n1)C1CCN(Cc2ccncc2)C1 (stereo not given)
-5.11

Give a short answer stating reported Percent Effect for `Cn1cc(C(=O)NC2CCN(C(=O)NCC3CCSCC3)CC2)cn1` .
1.7

# return recorded Percent Effect for entry COCCc1noc(CN2CCCC2c2c(C)nn(C)c2C)n1 (stereo not given)
-6.66

Continuing:
Determine its reported Percent Effect: O=C(NCc1cc[nH]n1)NCC(O)COc1cccc(F)c1 (stereo not given)
-6.87

Input `Cn1cc(CN2CC[C@H](O)[C@@H]2Cc2ccncc2)cn1` , output reported Percent Effect.
3.16

Answer with the recorded Percent Effect of O=C(c1cccc(N2CCCC2=O)c1)N1CCCC(n2cncn2)C1 (stereo not given) only.
-5.4

###

Measured Percent Effect accompanies every entry in the list below.
Biological target: Ubiquitin-activating enzyme e1, putative (Leishmania donovani (strain BPK282A1))
Sequence (whole entry): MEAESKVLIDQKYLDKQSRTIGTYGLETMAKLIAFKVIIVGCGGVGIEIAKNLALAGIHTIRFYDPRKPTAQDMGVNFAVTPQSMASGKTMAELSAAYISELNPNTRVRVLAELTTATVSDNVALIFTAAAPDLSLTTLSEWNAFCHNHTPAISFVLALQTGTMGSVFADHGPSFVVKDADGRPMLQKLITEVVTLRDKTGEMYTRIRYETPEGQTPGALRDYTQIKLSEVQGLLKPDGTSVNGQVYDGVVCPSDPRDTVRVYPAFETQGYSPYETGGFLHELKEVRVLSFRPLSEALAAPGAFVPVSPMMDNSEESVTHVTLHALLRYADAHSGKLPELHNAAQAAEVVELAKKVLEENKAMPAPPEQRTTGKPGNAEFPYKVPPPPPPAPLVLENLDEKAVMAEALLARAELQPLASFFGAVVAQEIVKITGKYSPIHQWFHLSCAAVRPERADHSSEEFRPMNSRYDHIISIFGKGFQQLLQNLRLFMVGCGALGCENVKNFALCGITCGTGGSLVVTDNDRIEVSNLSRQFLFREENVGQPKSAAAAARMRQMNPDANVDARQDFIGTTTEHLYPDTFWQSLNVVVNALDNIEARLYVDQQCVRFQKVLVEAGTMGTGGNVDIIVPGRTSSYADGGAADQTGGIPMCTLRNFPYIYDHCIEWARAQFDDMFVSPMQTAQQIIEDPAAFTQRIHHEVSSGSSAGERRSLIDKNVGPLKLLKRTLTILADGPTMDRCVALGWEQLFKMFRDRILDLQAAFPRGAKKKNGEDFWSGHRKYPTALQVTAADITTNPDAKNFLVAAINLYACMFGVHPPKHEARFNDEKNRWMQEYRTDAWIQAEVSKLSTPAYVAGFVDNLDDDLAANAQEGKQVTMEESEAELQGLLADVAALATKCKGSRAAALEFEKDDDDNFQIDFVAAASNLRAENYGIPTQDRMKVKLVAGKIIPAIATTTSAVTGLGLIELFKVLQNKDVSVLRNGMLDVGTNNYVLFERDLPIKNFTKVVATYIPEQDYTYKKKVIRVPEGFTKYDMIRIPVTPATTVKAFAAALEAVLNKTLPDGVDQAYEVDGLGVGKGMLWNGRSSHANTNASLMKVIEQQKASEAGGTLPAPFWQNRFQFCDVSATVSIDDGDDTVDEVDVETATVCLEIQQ
Experiment: Leishmania donovani Ubiquitin Activating Enzyme (LdE1)
Type: functional
Design: scale not given: direction of the effect not stated beside the values
Conditions: 30 µM
Potency and affinity values are given separately.
Just the number please, in %, no unit attached.

Worked examples, 2 compounds total:
Return reported Percent Effect. Input compound: `CN(C)c1cncc(C2CCN(C(=O)CO)CC2)n1`
6.76

Please list Percent Effect recorded for the compound `Cc1cccc(-n2c(C)cc(C(=O)N3CCn4c(C)nnc4C3)c2C)c1`
10.5

New cases:
Tell me Percent Effect reported for `Cc1cc(C)c(OCC(=O)NS(=O)(=O)c2c(C)noc2C)c(C)c1`
-2.56

###

Molecular target: Tyrosyl-tRNA synthetase, putative (Trypanosoma cruzi (strain CL Brener))
Sequence (whole entry): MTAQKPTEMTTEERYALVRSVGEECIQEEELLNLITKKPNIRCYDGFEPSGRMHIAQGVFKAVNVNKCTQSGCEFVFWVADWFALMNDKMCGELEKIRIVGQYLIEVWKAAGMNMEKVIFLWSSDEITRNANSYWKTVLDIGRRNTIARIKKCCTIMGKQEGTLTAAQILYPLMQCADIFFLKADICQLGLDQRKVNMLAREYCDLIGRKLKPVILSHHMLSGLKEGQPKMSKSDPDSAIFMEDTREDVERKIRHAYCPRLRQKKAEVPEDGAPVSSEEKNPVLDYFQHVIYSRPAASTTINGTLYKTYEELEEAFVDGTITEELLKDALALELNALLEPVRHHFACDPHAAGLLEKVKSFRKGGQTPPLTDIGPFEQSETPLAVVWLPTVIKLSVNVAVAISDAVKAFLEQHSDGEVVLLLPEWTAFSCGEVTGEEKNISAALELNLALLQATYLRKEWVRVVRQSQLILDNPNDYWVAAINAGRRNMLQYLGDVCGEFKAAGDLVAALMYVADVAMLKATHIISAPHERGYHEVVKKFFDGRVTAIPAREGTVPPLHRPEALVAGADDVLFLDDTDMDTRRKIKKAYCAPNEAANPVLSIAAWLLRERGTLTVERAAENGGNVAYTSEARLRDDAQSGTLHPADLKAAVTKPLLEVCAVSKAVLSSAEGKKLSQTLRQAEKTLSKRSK
Assay: Trypanosoma cruzi tyrosyl tRNA synthetase (TcYRS) _High Tyrosine SOP; further: in the data most compounds retested in dose-response had high values
Assay type: functional
Design: scale not given: direction of the effect not stated beside the values
Conditions: 30 µM
Property: Percent Effect; scope: individual compounds
I only need the number, in %, no unit after it.

Identify measured Percent Effect associated with Cc1cnn(C2CCCN(C(=O)c3cn4cccnc4n3)C2)c1 (centres undefined)
7.39

Consider the compound `C[C@]1(O)CCN(Cc2cncs2)C[C@@H]1Oc1cccc(F)c1` and give its recorded Percent Effect.
1.06

# return recorded Percent Effect for entry `CCO[C@@H]1CCN(C(=O)c2cscn2)[C@@H]1Cc1cnn(C)c1`
2.13

Give recorded Percent Effect. Cc1cnc(C(=O)N2CCCCC2c2[nH]ncc2S(C)(=O)=O)cn1 (centres undefined)
6.35

Please report Percent Effect for the following compound: `Cc1ncnc2c1CCN(Cc1ccc3c(c1)OCO3)CC2`
3.12

New cases:
Supply Percent Effect value. Item: `CCNC(=O)CCN1CCC(c2cc(N3CCOCC3)nc(C)n2)CC1`
2.66

For the compound `COc1ccc(CNC(=O)C2(C#N)CCCC2)cc1` , report Percent Effect.
4.21

Read the entry CCc1nc(C2CCCN(C(=O)c3cn(C)nc3C)C2)no1 (centres undefined) and write its reported Percent Effect.
3.96

Query Percent Effect for O=C1CC(c2ccccc2)c2c(n3ccsc3nc2=O)N1 (centres undefined)
5.29

Check the records and state Percent Effect for `COCCN1C[C@@H](C)[C@@]2(COCCN(C(=O)c3cnc(C)cn3)C2)C1`
-5.21

Using known records, supply Percent Effect for Cc1cnn(CC2CCCN2C(=O)Cc2n[nH]c3ccccc23)c1 (centres undefined)
8.37
